Every entry's value here was drawn from the supplement of paper PMC11061612.

Test system: SNU-175 (Colorectal Carcinoma)
Assay: combination Emax (second highest fraction inhibited in the dose matrix, 72 h); higher = more inhibition; extreme values may be limits of the assay

compound	combination Emax
CC1(C)CCC(CN2CCN(c3ccc(C(=O)NS(=O)(=O)c4ccc(NCC5CCOCC5)c([N+](=O)[O-])c4)c(Oc4cnc5[nH]ccc5c4)c3)CC2)=C(c2ccc(Cl)cc2)C1 [Venetoclax] + C[C@@H]1COCCN1C2=NC(=NC(=C2)C3(CC3)[S@](=N)(=O)C)C4=C5C=CNC5=NC=C4 [AZD6738] (first compound max 1 µM, 7x7, partner max 10 µM)	0.658
COc1cccc2c1C(=O)c1c(O)c3c(c(O)c1C2=O)C[C@@](O)(C(=O)CO)C[C@@H]3O[C@H]1C[C@H](N)[C@H](O)[C@H](C)O1 [Doxorubicin] + Cc1cc2ncnn2cc1Nc1ncc2c(n1)n(C1CCOCC1)c(=O)n2C [AZD7648] (first compound max 1 µM, 7x7, partner max 10 µM)	0.823
COc1nnc2ccc(N3CCC(c4ccc(OCCN5CCN(C)C(=O)[C@H]5C)cc4)CC3)nn12 [AZD5153] + CN(CC[C@H](CSC1=CC=CC=C1)NC2=C(C=C(C=C2)S(=O)(=O)NC(=O)C3=CC=C(C=C3)N4CCC(CC4)[C@H](C5=CC=CC=C5C6=CC=C(C=C6)Cl)O)S(=O)(=O)C(F)(F)F)CCO [AZD4320] (first compound max 1 µM, 7x7, partner max 1 µM)	0.759

###

Tested on: RPMI-8866 (Chronic Myelogenous Leukemia)
Assay: combination Emax (second highest fraction inhibited in the dose matrix, 72 h); higher = more inhibition; extreme values may be limits of the assay

compound	combination Emax
CC(=O)c1c(C)c2cnc(Nc3ccc(N4CCNCC4)cn3)nc2n(C2CCCC2)c1=O [Palbociclib] + Cn1cnc2c(F)c(Nc3ccc(Br)cc3Cl)c(C(=O)NOCCO)cc21 [Selumetinib] (first compound max 10 µM, 7x7, partner max 10 µM)	0.806
CC(=O)c1c(C)c2cnc(Nc3ccc(N4CCNCC4)cn3)nc2n(C2CCCC2)c1=O [Palbociclib] + Cc1c2c(nn1C)CSCc1cc(n(C)n1)CSc1cc(c3ccccc3c1)OCCCc1c(C(=O)O)n(C)c3c-2c(Cl)ccc13 [AZD5991] (first compound max 10 µM, 7x7, partner max 1 µM)	0.725
COc1cc2ncnc(Nc3ccc(F)c(Cl)c3)c2cc1OCCCN1CCOCC1 [Gefitinib] + CC(C)n1c(=O)n(C)c2cnc3cc(F)c(-c4ccc(OCCCN5CCCCC5)nc4)cc3c21 [AZD1390] (first compound max 10 µM, 7x7, partner max 0.3 µM)	0.119
Cc1cc2ncnn2cc1Nc1ncc2c(n1)n(C1CCOCC1)c(=O)n2C [AZD7648] + O=C(c1cc(Cc2n[nH]c(=O)c3ccccc23)ccc1F)N1CCN(C(=O)C2CC2)CC1 [Olaparib] (first compound max 10 µM, 7x7, partner max 10 µM)	0.594
CN(CCO)CC[C@H](CSc1ccccc1)Nc1ccc(S(=O)(=O)NC(=O)c2ccc(N3CCC([C@@H](O)c4ccccc4-c4ccc(Cl)cc4)CC3)cc2)cc1S(=O)(=O)C(F)(F)F [AZD4320] + CN(C)CCCOc1ccc(-c2ccc3ncc4c(c3c2)n(C2CCOCC2)c(=O)n4C)cn1 [AZD0156] (first compound max 1 µM, 7x7, partner max 1 µM)	0.552
CN(CCO)CC[C@H](CSc1ccccc1)Nc1ccc(S(=O)(=O)NC(=O)c2ccc(N3CCC([C@@H](O)c4ccccc4-c4ccc(Cl)cc4)CC3)cc2)cc1S(=O)(=O)C(F)(F)F [AZD4320] + Cn1cnc2c(F)c(Nc3ccc(Br)cc3Cl)c(C(=O)NOCCO)cc21 [Selumetinib] (first compound max 1 µM, 7x7, partner max 3 µM)	0.854
CN(C)CCCOc1ccc(-c2ccc3ncc4c(c3c2)n(C2CCOCC2)c(=O)n4C)cn1 [AZD0156] + CCN(CCO)CCCOc1ccc2c(Nc3cc(CC(=O)Nc4cccc(F)c4)[nH]n3)ncnc2c1 [AZD2811] (first compound max 1 µM, 7x7, partner max 1 µM)	0.61
